- Method Summary: in vivo
- Parameters: species or system Sprague-Dawley (SD) rats
- Measurement Setup: Sprague-Dawley, rat, plasma, po, 60 mg/kg
Recorded Metric: log10 of AUC(0-t) (log10 of the value in ng·h/mL)
Quick note: numbers are log10 of AUC(0-t), with ng·h/mL as the unit.

Recorded log10 of AUC(0-t), per entry:
- Compound: "CC(C)=CCC[C@](C)(O[C@@H]1O[C@H](CO)[C@@H](O)[C@H](O)[C@H]1O)[C@H]1CC[C@]2(C)[C@@H]1[C@H](O)C[C@@H]1[C@@]3(C)CC[C@H](O)C(C)(C)[C@@H]3[C@@H](O[C@@H]3O[C@H](CO)[C@@H](O)[C@H](O)[C@H]3O)C[C@]12C [GRg1, ginsenoside Rg1]"
  Endpoint Value: 1.15
- Compound: "CC(C)=CCC[C@](C)(O[C@@H]1O[C@H](CO[C@@H]2O[C@H](CO)[C@@H](O)[C@H](O)[C@H]2O)[C@@H](O)[C@H](O)[C@H]1O)[C@H]1CC[C@]2(C)[C@@H]1[C@H](O)C[C@@H]1[C@@]3(C)CC[C@H](O[C@@H]4O[C@H](CO)[C@@H](O)[C@H](O)[C@H]4O[C@@H]4O[C@H](CO)[C@@H](O)[C@H](O)[C@H]4O)C(C)(C)[C@@H]3CC[C@]12C [GRb1, ginsenoside Rb1]"
  Endpoint Value: 3.37
- Compound: "CC(C)=CCC[C@](C)(O[C@@H]1O[C@H](CO)[C@@H](O)[C@H](O)[C@H]1O)[C@H]1CC[C@]2(C)[C@@H]1[C@H](O)C[C@@H]1[C@@]3(C)CC[C@H](O)C(C)(C)[C@@H]3[C@@H](O[C@@H]3O[C@H](CO)[C@@H](O)[C@H](O)[C@H]3O[C@@H]3O[C@@H](C)[C@H](O)[C@@H](O)[C@H]3O)C[C@]12C [GRe, ginsenoside Re]"
  Endpoint Value: 0.26
- Compound: "CC(C)=CCC[C@](C)(O[C@@H]1O[C@H](CO)[C@@H](O)[C@H](O)[C@H]1O)[C@H]1CC[C@]2(C)[C@@H]1[C@H](O)C[C@@H]1[C@@]3(C)CC[C@H](O[C@@H]4O[C@H](CO)[C@@H](O)[C@H](O)[C@H]4O[C@@H]4O[C@H](CO)[C@@H](O)[C@H](O)[C@H]4O)C(C)(C)[C@@H]3CC[C@]12C [GRd, ginsenoside Rd]"
  Endpoint Value: 2.66

API: the following record is the query input.
# log10 of AUC(0-t) of CC(C)=CCC[C@](C)(O[C@@H]1O[C@H](CO)[C@@H](O)[C@H](O)[C@H]1O)[C@H]1CC[C@]2(C)[C@@H]1[C@H](O)C[C@@H]1[C@@]3(C)CC[C@H](O)C(C)(C)[C@@H]3[C@@H](O[C@@H]3O[C@H](CO)[C@@H](O)[C@H](O)[C@H]3O[C@@H]3OC[C@@H](O)[C@H](O)[C@H]3O)C[C@]12C [NGR1, notoginsenoside R1] = 0.80

====

- Method Summary: in vivo
- Set-up: species or system Sprague-Dawley (SD) rats
- Measurement Setup: Sprague-Dawley, rat, plasma, po, 60 mg·kg^−1
Criterion: concentration at 6 h strictly less than 30 ng/mL. Met: 1.0. Not met: 0.0.

- Compound: "CC(C)=CCC[C@](C)(O[C@@H]1O[C@H](CO)[C@@H](O)[C@H](O)[C@H]1O)[C@H]1CC[C@]2(C)[C@@H]1[C@H](O)C[C@@H]1[C@@]3(C)CC[C@H](O)C(C)(C)[C@@H]3[C@@H](O[C@@H]3O[C@H](CO)[C@@H](O)[C@H](O)[C@H]3O[C@@H]3OC[C@@H](O)[C@H](O)[C@H]3O)C[C@]12C [NGR1, notoginsenoside R1]"
  Answer Label: 1.0
- Compound: "CC(C)=CCC[C@](C)(O[C@@H]1O[C@H](CO)[C@@H](O)[C@H](O)[C@H]1O)[C@H]1CC[C@]2(C)[C@@H]1[C@H](O)C[C@@H]1[C@@]3(C)CC[C@H](O)C(C)(C)[C@@H]3[C@@H](O[C@@H]3O[C@H](CO)[C@@H](O)[C@H](O)[C@H]3O)C[C@]12C [GRg1, ginsenoside Rg1]"
  Answer Label: 1.0
- Compound: "CC(C)=CCC[C@](C)(O[C@@H]1O[C@H](CO)[C@@H](O)[C@H](O)[C@H]1O)[C@H]1CC[C@]2(C)[C@@H]1[C@H](O)C[C@@H]1[C@@]3(C)CC[C@H](O)C(C)(C)[C@@H]3[C@@H](O[C@@H]3O[C@H](CO)[C@@H](O)[C@H](O)[C@H]3O[C@@H]3O[C@@H](C)[C@H](O)[C@@H](O)[C@H]3O)C[C@]12C [GRe, ginsenoside Re]"
  Answer Label: 1.0
- Compound: "CC(C)=CCC[C@](C)(O[C@@H]1O[C@H](CO[C@@H]2O[C@H](CO)[C@@H](O)[C@H](O)[C@H]2O)[C@@H](O)[C@H](O)[C@H]1O)[C@H]1CC[C@]2(C)[C@@H]1[C@H](O)C[C@@H]1[C@@]3(C)CC[C@H](O[C@@H]4O[C@H](CO)[C@@H](O)[C@H](O)[C@H]4O[C@@H]4O[C@H](CO)[C@@H](O)[C@H](O)[C@H]4O)C(C)(C)[C@@H]3CC[C@]12C [GRb1, ginsenoside Rb1]"
  Answer Label: 0.0

Below: the item to evaluate.
## Task Say whether its concentration at 6 h is strictly beneath 30 ng/mL. Entry: CC(C)=CCC[C@](C)(O[C@@H]1O[C@H](CO)[C@@H](O)[C@H](O)[C@H]1O)[C@H]1CC[C@]2(C)[C@@H]1[C@H](O)C[C@@H]1[C@@]3(C)CC[C@H](O[C@@H]4O[C@H](CO)[C@@H](O)[C@H](O)[C@H]4O[C@@H]4O[C@H](CO)[C@@H](O)[C@H](O)[C@H]4O)C(C)(C)[C@@H]3CC[C@]12C [GRd, ginsenoside Rd]
## Result 1.0

====

- Method Summary: in vivo
- Set-up: species or system Sprague-Dawley (SD) rats
- Measurement Setup: Sprague-Dawley, rat, plasma, po, 60 mg/kg
Recorded Metric: Tmax (h)
Give bare numbers, in h.

- Compound: "CC(C)=CCC[C@](C)(O[C@@H]1O[C@H](CO[C@@H]2O[C@H](CO)[C@@H](O)[C@H](O)[C@H]2O)[C@@H](O)[C@H](O)[C@H]1O)[C@H]1CC[C@]2(C)[C@@H]1[C@H](O)C[C@@H]1[C@@]3(C)CC[C@H](O[C@@H]4O[C@H](CO)[C@@H](O)[C@H](O)[C@H]4O[C@@H]4O[C@H](CO)[C@@H](O)[C@H](O)[C@H]4O)C(C)(C)[C@@H]3CC[C@]12C [GRb1, ginsenoside Rb1]"
  Recorded Metric: "Tmax"
  Endpoint Value: 5.5

Recorded Tmax (compound CC(C)=CCC[C@](C)(O[C@@H]1O[C@H](CO)[C@@H](O)[C@H](O)[C@H]1O)[C@H]1CC[C@]2(C)[C@@H]1[C@H](O)C[C@@H]1[C@@]3(C)CC[C@H](O)C(C)(C)[C@@H]3[C@@H](O[C@@H]3O[C@H](CO)[C@@H](O)[C@H](O)[C@H]3O)C[C@]12C [GRg1, ginsenoside Rg1] ): 4.71

====

- Method Summary: in vivo
- Parameters: species or system Sprague-Dawley (SD) rats
- Measurement Setup: Sprague-Dawley, plasma; 3 h after oral CNP, rat
Recorded Metric: concentration at 3 h (ng/mL)
Numbers only, in ng/mL.

- Compound: "CC(C)=CCC[C@](C)(O[C@@H]1O[C@H](CO)[C@@H](O)[C@H](O)[C@H]1O)[C@H]1CC[C@]2(C)[C@@H]1[C@H](O)C[C@@H]1[C@@]3(C)CC[C@H](O)C(C)(C)[C@@H]3[C@@H](O[C@@H]3O[C@H](CO)[C@@H](O)[C@H](O)[C@H]3O[C@@H]3O[C@@H](C)[C@H](O)[C@@H](O)[C@H]3O)C[C@]12C [GRe, ginsenoside Re]"
  Measure Unit: "ng/mL"
  concentration at 3 h: 0.28

# evaluate next
The compound listed as CC(C)=CCC[C@](C)(O[C@@H]1O[C@H](CO)[C@@H](O)[C@H](O)[C@H]1O)[C@H]1CC[C@]2(C)[C@@H]1[C@H](O)C[C@@H]1[C@@]3(C)CC[C@H](O[C@@H]4O[C@H](CO)[C@@H](O)[C@H](O)[C@H]4O[C@@H]4O[C@H](CO)[C@@H](O)[C@H](O)[C@H]4O)C(C)(C)[C@@H]3CC[C@]12C [GRd, ginsenoside Rd] shows concentration at 3 h equal to 18.7

====

Provide the reported Response (% control) CYP2C19 of each item.
- Tested on: CYP2C19
- Method Summary: In vitro cocktail CYP450 activity assay in rat liver microsomes, CYP2C19 (omeprazole probe)
- Measurement Setup: at the Cmax level in rat plasma, calculated from the dose–response curve
Answers are plain numbers, in % control.

Solved entries (count: 4):
- Compound: "CC(C)=CCC[C@](C)(O[C@@H]1O[C@H](CO)[C@@H](O)[C@H](O)[C@H]1O)[C@H]1CC[C@]2(C)[C@@H]1[C@H](O)C[C@@H]1[C@@]3(C)CC[C@H](O[C@@H]4O[C@H](CO)[C@@H](O)[C@H](O)[C@H]4O[C@@H]4O[C@H](CO)[C@@H](O)[C@H](O)[C@H]4O)C(C)(C)[C@@H]3CC[C@]12C [GRd, ginsenoside Rd]"
  Measure Unit: "% control"
  Endpoint Value: 99.95
- Compound: "CC(C)=CCC[C@](C)(O[C@@H]1O[C@H](CO)[C@@H](O)[C@H](O)[C@H]1O)[C@H]1CC[C@]2(C)[C@@H]1[C@H](O)C[C@@H]1[C@@]3(C)CC[C@H](O)C(C)(C)[C@@H]3[C@@H](O[C@@H]3O[C@H](CO)[C@@H](O)[C@H](O)[C@H]3O)C[C@]12C [GRg1, ginsenoside Rg1]"
  Measure Unit: "% control"
  Endpoint Value: 99.83
- Compound: "CC(C)=CCC[C@](C)(O[C@@H]1O[C@H](CO)[C@@H](O)[C@H](O)[C@H]1O)[C@H]1CC[C@]2(C)[C@@H]1[C@H](O)C[C@@H]1[C@@]3(C)CC[C@H](O)C(C)(C)[C@@H]3[C@@H](O[C@@H]3O[C@H](CO)[C@@H](O)[C@H](O)[C@H]3O[C@@H]3OC[C@@H](O)[C@H](O)[C@H]3O)C[C@]12C [NGR1, notoginsenoside R1]"
  Measure Unit: "% control"
  Endpoint Value: 92.32
- Compound: "CC(C)=CCC[C@](C)(O[C@@H]1O[C@H](CO)[C@@H](O)[C@H](O)[C@H]1O)[C@H]1CC[C@]2(C)[C@@H]1[C@H](O)C[C@@H]1[C@@]3(C)CC[C@H](O)C(C)(C)[C@@H]3[C@@H](O[C@@H]3O[C@H](CO)[C@@H](O)[C@H](O)[C@H]3O[C@@H]3O[C@@H](C)[C@H](O)[C@@H](O)[C@H]3O)C[C@]12C [GRe, ginsenoside Re]"
  Measure Unit: "% control"
  Endpoint Value: 98.36

// sample CC(C)=CCC[C@](C)(O[C@@H]1O[C@H](CO[C@@H]2O[C@H](CO)[C@@H](O)[C@H](O)[C@H]2O)[C@@H](O)[C@H](O)[C@H]1O)[C@H]1CC[C@]2(C)[C@@H]1[C@H](O)C[C@@H]1[C@@]3(C)CC[C@H](O[C@@H]4O[C@H](CO)[C@@H](O)[C@H](O)[C@H]4O[C@@H]4O[C@H](CO)[C@@H](O)[C@H](O)[C@H]4O)C(C)(C)[C@@H]3CC[C@]12C [GRb1, ginsenoside Rb1] , its Response (% control) CYP2C19 was 98.58
